targetOfAssay: P-gp (Homo sapiens)
Sequence (P08183 whole entry): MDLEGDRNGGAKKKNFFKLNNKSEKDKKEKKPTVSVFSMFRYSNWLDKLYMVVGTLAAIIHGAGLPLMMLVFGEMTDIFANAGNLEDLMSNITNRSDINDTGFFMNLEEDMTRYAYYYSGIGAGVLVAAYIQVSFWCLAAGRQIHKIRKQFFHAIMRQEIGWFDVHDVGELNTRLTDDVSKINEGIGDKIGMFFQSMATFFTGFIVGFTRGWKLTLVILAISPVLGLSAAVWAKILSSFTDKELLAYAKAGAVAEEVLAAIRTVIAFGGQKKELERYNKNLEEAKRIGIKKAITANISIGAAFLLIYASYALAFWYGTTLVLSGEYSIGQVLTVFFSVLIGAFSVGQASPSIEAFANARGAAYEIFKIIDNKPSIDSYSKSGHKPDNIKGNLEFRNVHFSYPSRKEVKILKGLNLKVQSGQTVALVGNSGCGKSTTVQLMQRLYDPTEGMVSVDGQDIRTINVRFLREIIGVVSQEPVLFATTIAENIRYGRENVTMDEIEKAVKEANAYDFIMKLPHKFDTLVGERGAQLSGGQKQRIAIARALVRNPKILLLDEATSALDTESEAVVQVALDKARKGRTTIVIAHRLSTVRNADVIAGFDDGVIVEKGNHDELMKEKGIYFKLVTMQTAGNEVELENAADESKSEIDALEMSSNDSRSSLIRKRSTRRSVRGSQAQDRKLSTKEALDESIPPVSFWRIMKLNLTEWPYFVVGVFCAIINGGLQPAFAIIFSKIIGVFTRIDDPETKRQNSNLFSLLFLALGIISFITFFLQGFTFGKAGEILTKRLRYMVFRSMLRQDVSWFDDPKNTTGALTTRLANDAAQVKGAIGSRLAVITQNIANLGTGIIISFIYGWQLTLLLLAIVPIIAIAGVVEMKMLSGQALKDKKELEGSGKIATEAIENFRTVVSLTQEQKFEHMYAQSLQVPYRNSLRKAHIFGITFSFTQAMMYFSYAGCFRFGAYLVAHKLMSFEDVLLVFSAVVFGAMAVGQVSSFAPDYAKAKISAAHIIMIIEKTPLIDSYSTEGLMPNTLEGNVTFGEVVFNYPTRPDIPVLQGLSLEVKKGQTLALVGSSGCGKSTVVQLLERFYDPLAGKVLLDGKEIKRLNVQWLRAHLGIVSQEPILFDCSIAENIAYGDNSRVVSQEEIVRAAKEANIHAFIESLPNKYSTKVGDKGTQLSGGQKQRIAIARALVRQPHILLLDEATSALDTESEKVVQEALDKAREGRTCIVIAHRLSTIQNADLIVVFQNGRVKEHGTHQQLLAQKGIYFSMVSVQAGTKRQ
protocolNotes: in vitro
measuredQuantity: inhibition at 1 min (%)

| compound | measuredQuantity | obsValue |
| --- | --- | --- |
| CCC(=O)C(CC(C)N(C)C)(c1ccccc1)c1ccccc1 (stereo not shown) [methadone] | inhibition at 1 min | 60 |

Cited source for all entries: paper PMC2748165
